- procedure.details: protein stability index of a GFP-peptide fusion (yeast GPS) (PSI 1-4); higher = more stable; sorted into four equal gates, so the index is relative within each strain
- condition.summary: doa10∆
Reported protein stability index values are given for each entry in this list.
Format: numeric value only, no unit, no commentary.

monomer.sequence: SNSANVSSPESEKNKRQ [ITC1]
protein stability index: 2.93

monomer.sequence: FVIPALPAAVSKSLQES [RPC82]
protein stability index: 1.8

monomer.sequence: QINIMPSLKAHFTEIKL [SIR3]
protein stability index: 2.18

monomer.sequence: VCLMQISTRERDYLVDT [RRP6]
protein stability index: 3.3

monomer.sequence: LTPIQKKIMDETPSRLL [ITC1]
protein stability index: 3.33

Item under review: TDEHLIFNSGKMIILDK [ISW2] . Reported protein stability index? 3

Cool, now IINKLIHIQSKENYPWE [POP3] 2.65

# repeat for VAHSSRLANLIDYKLRV [SMB1] 3.58

====

- procedure.details: protein stability index of a GFP-peptide fusion (yeast GPS) (PSI 1-4); higher = more stable; sorted into four equal gates, so the index is relative within each strain
- condition.summary: pdr5∆
Entries and their protein stability index values follow.
No unit in the answer, only the number.

monomer.sequence: NISNAKLANFFSKKGNE [YAR002W/NUP60]
protein stability index: 3.05
//
monomer.sequence: SVFMPLIFIACNDEDKD [ECM29]
protein stability index: 2.93

Consider the additional sequence presented here.
What value of protein stability index has been recorded for this entry: GKMIELISGKAGVLNGT [RET1] 2.98

====

- procedure.details: protein stability index of a GFP-peptide fusion (yeast GPS) (PSI 1-4); higher = more stable; sorted into four equal gates, so the index is relative within each strain
- condition.summary: ubr1∆
endpoint.name: protein stability index
Could you respond with only the numeric value?

// solved cases for protein stability index follow
monomer.sequence: EDKFLYGDGNGKGDNDN [SWI3]
protein stability index: 3.42
--
monomer.sequence: VDIYTHFTSPIRRYCDV [DIS3]
protein stability index: 2.19
--
monomer.sequence: ETKADGILLETISVPQI [RRP6]
protein stability index: 2.26

As a next step, examine the sequence that follows.
// protein stability index lookup, key: SMKYDNGVIIAADNLGS [PRE4] 3.06

====

Recorded protein stability index by entry
- procedure.details: protein stability index of a GFP-peptide fusion (yeast GPS) (PSI 1-4); higher = more stable; sorted into four equal gates, so the index is relative within each strain
- condition.summary: san1∆
Lab note: jot down the number only; don't add units.

Worked cases, answers included:
monomer.sequence: NEDDLTVKLTEIVWTSS [RPO31]
protein stability index: 3.01
//
monomer.sequence: LADKLENYEGKQDKTLQ [YIL149C/MLP2]
protein stability index: 2.92
//
monomer.sequence: STQELQTRAKLLDNEIR [RPT5]
protein stability index: 3.03

Turning now to a further record.
Dear colleague, I am looking for the recorded protein stability index of the following sequence: MPQSFTSIARIGDYILK [QCR7] 3.04

====

- procedure.details: protein stability index of a GFP-peptide fusion (yeast GPS) (PSI 1-4); higher = more stable; sorted into four equal gates, so the index is relative within each strain
- condition.summary: ubr1∆
# Lookup of reported protein stability index keyed by entry
# respond with the number and nothing more

monomer.sequence: VNAITVAQQQVQRQIEQ [SNF5]
endpoint.name: protein stability index
data.value: 3

monomer.sequence: DTTFSDFKEVEDFLHFI [SRB4]
endpoint.name: protein stability index
data.value: 2.56

Request the reported protein stability index associated with SNIPTLIEKLQGFSKDT [YDL116W/NUP84] 3.17

Now consider MSEQQWREQLRNRDIAL [ROX3] . 2.42

Request: IETVMTQEQFVKRRRDM [SRB4] 2.49

Another sequence to look at: MDRTQTFIKDCLFTKCL [POP4] 1.94

Record: LYLKVIPMDFIRNVLVT [SSN2] 1.29

Then QSDSAKVEIKKVNSRDD [PRP28] ? 2.9

Item: LSEPLIKIGIRVMKSLS [YCG1] 1.73

Now consider NSPSSALRALQENGTIF [YDL088C/ASM4] . 2.01

// repeat for AGAAGAAAGGDAAEEEK [RPP2B] and report 1.27

====

- procedure.details: protein stability index of a GFP-peptide fusion (yeast GPS) (PSI 1-4); higher = more stable; sorted into four equal gates, so the index is relative within each strain
- condition.summary: san1∆
endpoint.name: protein stability index
Response field accepts a number only; no unit should be typed.

monomer.sequence: LQIHSRKMTTDDDINWQ [RPT5]
protein stability index: 2.93
--
monomer.sequence: VFVDGEANWPLPVNIRR [RPO21]
protein stability index: 3.12
--
monomer.sequence: EITQQEKGLNELSIRDV [SMC4]
protein stability index: 2.74
--
monomer.sequence: RGRSVMKESVVEINSSE [ESC2]
protein stability index: 3.09
--
monomer.sequence: LNRQNDITDGKDYHTLA [RPS18A]
protein stability index: 3.27
--
monomer.sequence: LLDEEAEQSFDQQSPWL [RPO21]
protein stability index: 3.24
--
monomer.sequence: RTQAGDIVSIDIEEPQL [MTW1]
protein stability index: 3.36
--
monomer.sequence: VVEDKPLLSKKERLVRD [SMB1]
protein stability index: 1.21
--
monomer.sequence: NIMVTIDGCVKIGDLGL [SSN3]
protein stability index: 3.5
--
monomer.sequence: VKADVEKSLLPKIETNV [ISW2]
protein stability index: 3.11

Quick check: protein stability index of ASLNLLQLAPGAHLGRF [RPL4A] ? 3.18

What about this sequence? REISNFSKGDADVLVDR [SRP72] 3.03

====

- procedure.details: protein stability index of a GFP-peptide fusion (yeast GPS) (PSI 1-4); higher = more stable; sorted into four equal gates, so the index is relative within each strain
- condition.summary: san1∆
Binary classification by protein stability index, with 3 as an inclusive lower bound for true (1); all other cases are false (0).

Previously resolved entries follow.
monomer.sequence: KEIDPSQTTQLAGMDVE [FAS2]
group.label: true (1)
--
monomer.sequence: EATLESKLKEEEAALLI [ESC2]
group.label: false (0)
--
monomer.sequence: PQLSKAGKFPTPVSHND [RPL1A]
group.label: false (0)
--
monomer.sequence: YSKNNPNLLFSMCGFEV [PRP8]
group.label: false (0)
--
monomer.sequence: DPSLNLKLLAKSHVLLA [BRR2]
group.label: false (0)
--
monomer.sequence: ILQILDQDELVQPPLDK [SWP82]
group.label: false (0)

Given the entry VKPQYDEIHIPAPSKPV [BRR2] , answer whether its protein stability index meets or surpasses 3. false (0)

Also, ACDPSEIEPILMEIHNI [RGR1] please. true (1)

Would you kindly repeat that for VKRRRDMLEHINLAMNE [SRB4] ? false (0)

Also check VLAGDTRNITDYSINSR [PRE7] true (1)

====

- procedure.details: protein stability index of a GFP-peptide fusion (yeast GPS) (PSI 1-4); higher = more stable; sorted into four equal gates, so the index is relative within each strain
- condition.summary: pdr5∆
Parameter protein stability index: see the listing below.

Sample records with protein stability index:
monomer.sequence: GYILEGEELAFYLRRLT [RPS8A]
protein stability index: 1.41
--
monomer.sequence: LQCISQINQGVPSAKPL [SNF11]
protein stability index: 1.95
--
monomer.sequence: SSSANKLLQLFLTPMDS [YML103C/NUP188]
protein stability index: 1.61
--
monomer.sequence: TSRVFAKIISKAPEQFI [YML103C/NUP188]
protein stability index: 3.08
--
monomer.sequence: IQISKLHYTPIEDLWQF [RPC82]
protein stability index: 2.27
--
monomer.sequence: VGFWKDDGDDEDLLECL [MTR3]
protein stability index: 3.42

# lookup: protein stability index of VTRGISVLKDSDDKTRQ [PRE1] 3.28

What do you have for LSKRQKRKSAQEPELSL [SMC4] ? 3.15

Note, next up: KERSDGKRHIFDVNTLC [CDC53] 1.76

Entry EDGMIIDVNLNFARQLL [RRP40] please 3.23

GQSINDSLKKLLPQWDD [ARP9] ? 2.86

For DAKKARFWSFMKTQRFV [SIR4] then? 2.88

// next record NYTQNIDNLESYAGIST [SIR2] 2.96

Another sequence to look at: ESSLTISLYFNDILDEL [ECM29] 2.25

Lookup LEESDVEDTLHVNKRKR [YOR098C/NUP1] 2.89

Thanks! And VDEELGPSIYKTDPAGY [SCL1] ? 3.35

Here is the next sequence: VSHHATTFTHCEIHPSM [RPB2] 3.22

Next record, please: ESTETGYVIKVFNNGIV [DIS3] 3.08
